The reported measurements were obtained from patent US20160346249A1.

# assay: 13-week dog toxicity and toxicokinetic study
# Format: in vivo
# conditionDescription: male, beagle, dog, in vivo, po, 6 mg/kg/day, males, 6 mg/kg/day, Day 86
readout: Cmax
Please provide the amount together with its unit, number first.

Please look at this compound and report its Cmax: Clc1ccc([C@]23CNC[C@H]2C3)cc1Cl
4140 ng/mL

* * *

# assay: Single rising oral dose (10-150 mg IR) safety, tolerance and pharmacokinetics in healthy male volunteers
# Type: in vivo, human
# conditionDescription: male, human, plasma, oral, 10 mg, Mean (n = 7); read-out: t1/2 (converted)
readout: half-life

Please look at this compound and report its half-life: Clc1ccc([C@]23CNC[C@H]2C3)cc1Cl
3.42 h
